Measured target: URAT-1 transporter (Homo sapiens, UniProt Q96S37)
Construct: expressed in transfected cells
Sequence (Q96S37 with tags, fused parts or gaps): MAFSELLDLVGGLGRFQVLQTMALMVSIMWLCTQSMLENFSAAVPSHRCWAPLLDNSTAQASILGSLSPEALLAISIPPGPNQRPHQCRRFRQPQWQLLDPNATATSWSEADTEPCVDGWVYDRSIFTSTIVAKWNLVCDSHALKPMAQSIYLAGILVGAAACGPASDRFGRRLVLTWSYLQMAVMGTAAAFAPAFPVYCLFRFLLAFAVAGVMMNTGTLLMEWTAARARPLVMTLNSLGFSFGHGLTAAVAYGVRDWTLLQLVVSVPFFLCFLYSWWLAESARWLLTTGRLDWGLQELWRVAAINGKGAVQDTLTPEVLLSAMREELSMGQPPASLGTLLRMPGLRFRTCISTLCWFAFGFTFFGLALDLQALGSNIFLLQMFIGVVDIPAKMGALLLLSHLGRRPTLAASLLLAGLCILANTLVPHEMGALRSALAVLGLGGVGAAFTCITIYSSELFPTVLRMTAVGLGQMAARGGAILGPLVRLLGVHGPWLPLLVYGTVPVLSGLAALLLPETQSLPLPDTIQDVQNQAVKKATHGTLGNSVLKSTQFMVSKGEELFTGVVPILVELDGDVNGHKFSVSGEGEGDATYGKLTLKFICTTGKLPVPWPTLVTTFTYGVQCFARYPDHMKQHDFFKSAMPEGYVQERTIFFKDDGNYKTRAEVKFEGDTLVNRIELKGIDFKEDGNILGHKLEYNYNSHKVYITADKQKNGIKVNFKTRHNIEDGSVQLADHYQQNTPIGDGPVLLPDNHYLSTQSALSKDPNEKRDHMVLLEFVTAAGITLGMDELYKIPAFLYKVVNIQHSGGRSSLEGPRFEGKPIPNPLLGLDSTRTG
Method: URAT-1 inhibitor activity: [14C]-uric acid uptake into CHO-URAT1(L)GFP#8 (CHO#8) cells, scintillation proximity
Format: cell-based
pIC50: −log10 of the molar value.
Endpoint: pIC50

Sample records with pIC50:
{"Compound": "CCc1cc(F)ccc1Oc1cc(F)c(S(=O)(=O)Nc2cscn2)cc1Br [Example 78]", "pIC50": 6.78}
{"Compound": "COc1ccc(C)cc1Oc1cc(F)c(S(=O)(=O)Nc2nncs2)cc1Cl [compound 300]", "pIC50": 6.48}
{"Compound": "N#Cc1cc(S(=O)(=O)Nc2ncns2)ccc1Oc1c(F)cccc1Cl [compound 251]", "pIC50": 5.88}
{"Compound": "COc1c(Oc2ccc(S(=O)(=O)Nc3ncns3)cc2C#N)ccc(F)c1C [compound 266]", "pIC50": 5.80}

I: N#Cc1cc(S(=O)(=O)Nc2ncns2)ccc1Oc1ccccc1C(F)(F)F [Example 35]
II: N#Cc1cc(S(=O)(=O)Nc2ncns2)ccc1Oc1ccc(F)cc1 [compound 294]
In: When their pIC50 values are compared, which is larger, I or II ? Please indicate the selected item by its label.
Out: II
(II: 6.05, I: 5.36)
